# ATG_ERa_TRANS listing for each entry below
Target: ESR1 (estrogen receptor 1) (Homo sapiens)
Construct: expressed in transfected cells; host or cells: HepG2
Sequence (P03372 whole entry): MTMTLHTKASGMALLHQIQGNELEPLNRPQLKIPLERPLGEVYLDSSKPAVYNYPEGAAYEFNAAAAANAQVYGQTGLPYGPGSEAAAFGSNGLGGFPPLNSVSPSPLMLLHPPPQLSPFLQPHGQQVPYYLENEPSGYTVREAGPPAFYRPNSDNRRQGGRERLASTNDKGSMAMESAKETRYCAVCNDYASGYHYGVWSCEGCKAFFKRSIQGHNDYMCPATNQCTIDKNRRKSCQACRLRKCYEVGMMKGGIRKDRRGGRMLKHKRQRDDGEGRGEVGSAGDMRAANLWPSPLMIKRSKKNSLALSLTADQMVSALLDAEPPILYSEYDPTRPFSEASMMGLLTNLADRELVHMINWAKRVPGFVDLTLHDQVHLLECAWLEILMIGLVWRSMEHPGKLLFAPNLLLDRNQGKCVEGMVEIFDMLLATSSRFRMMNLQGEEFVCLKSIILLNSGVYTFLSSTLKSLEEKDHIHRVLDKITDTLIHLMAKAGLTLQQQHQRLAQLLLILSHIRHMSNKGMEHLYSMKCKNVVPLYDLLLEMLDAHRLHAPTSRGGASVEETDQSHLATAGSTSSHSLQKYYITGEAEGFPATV
Assay: ATG_ERa_TRANS: Factorial reporter gene assay (HepG2)
Type: cell-based
Conditions: HepG2 reporter

Worked examples follow.
compound	target desc	ATG_ERa_TRANS
CC(C)(C)c1ccc(CSc2cnn(C(C)(C)C)c(=O)c2Cl)cc1	ESR1 (estrogen receptor 1) (Homo sapiens)	4.367
CC(C)=CC1C(C(=O)OCc2coc(Cc3ccccc3)c2)C1(C)C (stereo not shown)	ESR1 (estrogen receptor 1) (Homo sapiens)	4.553

Ask | # lookup: ATG_ERa_TRANS of O=[N+]([O-])c1c(Cl)c(Cl)c(Cl)c(Cl)c1Cl
Reply | 4.284

Ask | Entry Cc1c(F)c(F)c(COC(=O)C2C(/C=C(\Cl)C(F)(F)F)C2(C)C)c(F)c1F (stereo not shown) please
Reply | 4.31
